# Tested Target: 20S proteasome in HT-29 cell lysates, C-L activity (Homo sapiens, UniProt P28072)
# Test Method Notes: Proteasome inhibition assay in cell lysates, HT-29, C-L
# Test Context: read-out: percentage of proteasome inhibition, C-L, cell lysates HT-29, at 100 µM; Table 2 legend: bortezomib 10 µM
Recorded inhibition at 100 µM, one value per entry.
Could you give me the number in %? Just the number is fine.

CC(C)c1nc(CN(C)C(=O)N[C@@H](CCN2CCOCC2)C(=O)N[C@H](CC[C@H](Cc2ccccc2)NC(=O)OCc2cncs2)Cc2ccccc2)cs1 [Compound 5, cobicistat, reference compound] | 29.3
O=C1c2ccccc2C(=O)c2c(Nc3ccc(S(=O)(=O)N(CCO)CCO)cc3)ccc(O)c21 | 69.2
Cc1ccc2ccccc2c1CSc1ncnc2c1ncn2C1OC(CO)C(O)C1O (centres unmarked) | 76
C#CCCN1CCN(c2ccc(-n3c(=O)ccc4cnc5ccc(-c6ccc(N)nc6)cc5c43)cc2C(F)(F)F)CC1 | 82.1

Next item in the queue.
Per the record, "Cc1ccc(/C(=N/NS(=O)(=O)c2ccc([N+](=O)[O-])cc2)Sc2cc(Cl)c(C)cc2S(N)(=O)=O)cc1" has inhibition at 100 µM of 18.6

* * *

Recorded IC50, one value per entry.
# Tested Target: isolated human 20S proteasome, C-L activity (Homo sapiens, UniProt P28072)
# Construct: human purified erythrocyte-derived 20S proteasome
# Test Method Notes: Proteasome inhibition assay in isolated human 20S proteasomes (Proteasome-Glo), C-L activity
# Test Context: mean ± SD
Could you give me the number in µM? Just the number is fine.

Examples with answers:
C#CCCN1CCN(c2ccc(-n3c(=O)ccc4cnc5ccc(-c6ccc(N)nc6)cc5c43)cc2C(F)(F)F)CC1 | 41.2
O=C1c2ccccc2C(=O)c2c(Nc3ccc(S(=O)(=O)N(CCO)CCO)cc3)ccc(O)c21 | 2.42

Next item in the queue.
Per the record, "Cc1ccc(/C(=N/NS(=O)(=O)c2ccc([N+](=O)[O-])cc2)Sc2cc(Cl)c(C)cc2S(N)(=O)=O)cc1" has IC50 of 51.1

* * *

# Tested Target: 20S proteasome in HCT116 cell lysates, C-L activity (Homo sapiens, UniProt P28072)
# Sequence (P28072 35-239 limits assumed): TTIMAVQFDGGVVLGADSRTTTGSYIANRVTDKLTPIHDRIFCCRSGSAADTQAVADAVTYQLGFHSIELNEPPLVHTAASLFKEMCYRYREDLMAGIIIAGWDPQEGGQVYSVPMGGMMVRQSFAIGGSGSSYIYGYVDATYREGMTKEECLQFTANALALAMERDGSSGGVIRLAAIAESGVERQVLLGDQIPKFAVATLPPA
# Sequence (Q99436 44-277 partner): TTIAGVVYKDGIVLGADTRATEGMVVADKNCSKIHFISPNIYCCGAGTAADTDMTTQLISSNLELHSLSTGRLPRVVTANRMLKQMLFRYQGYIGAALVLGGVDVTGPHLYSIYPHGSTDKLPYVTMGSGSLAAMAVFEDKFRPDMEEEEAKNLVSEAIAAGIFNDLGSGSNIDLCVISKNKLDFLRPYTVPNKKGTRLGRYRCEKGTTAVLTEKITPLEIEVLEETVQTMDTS
# Test Method Notes: Proteasome inhibition assay in cell lysates, HCT116, C-L
Recorded pIC50, one value per entry.
Quick note: pIC50 means taking -log10 of the concentration in moles per liter.

Cc1ccc2ccccc2c1CSc1ncnc2c1ncn2C1OC(CO)C(O)C1O (stereo not drawn) | 4.12
C#CCCN1CCN(c2ccc(-n3c(=O)ccc4cnc5ccc(-c6ccc(N)nc6)cc5c43)cc2C(F)(F)F)CC1 | 4.54

Next item in the queue.
Per the record, "O=C1c2ccccc2C(=O)c2c(Nc3ccc(S(=O)(=O)N(CCO)CCO)cc3)ccc(O)c21" has pIC50 of 4.36

* * *

# Tested Target: 20S proteasome in HCT116 cell lysates, CT-L activity (Homo sapiens, UniProt P28074)
# Sequence (P28074 60-263): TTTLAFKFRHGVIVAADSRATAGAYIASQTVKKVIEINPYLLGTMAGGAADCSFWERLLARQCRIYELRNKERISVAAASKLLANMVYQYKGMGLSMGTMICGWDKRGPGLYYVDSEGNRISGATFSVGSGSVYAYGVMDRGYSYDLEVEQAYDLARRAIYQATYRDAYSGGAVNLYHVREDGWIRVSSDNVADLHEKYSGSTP
# Sequence (P20618 29-241 partner): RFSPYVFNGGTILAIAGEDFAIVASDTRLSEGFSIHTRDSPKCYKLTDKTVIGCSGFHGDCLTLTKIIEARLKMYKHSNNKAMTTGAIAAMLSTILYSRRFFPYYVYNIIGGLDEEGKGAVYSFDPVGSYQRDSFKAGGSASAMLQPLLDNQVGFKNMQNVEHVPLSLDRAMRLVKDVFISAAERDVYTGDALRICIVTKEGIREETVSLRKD
# Test Method Notes: Proteasome inhibition assay in cell lysates, HCT116, CT-L
# Test Context: read-out: percentage of proteasome inhibition, CT-L, cell lysates HCT116, at 100 µM; Table 2 legend: bortezomib 10 µM
Measured Endpoint: inhibition at 100 µM (%)
Could you give me the number in %? Just the number is fine.

Cc1ccc2ccccc2c1CSc1ncnc2c1ncn2C1OC(CO)C(O)C1O (centres unmarked) [Compound 1] | 90.2
C#CCCN1CCN(c2ccc(-n3c(=O)ccc4cnc5ccc(-c6ccc(N)nc6)cc5c43)cc2C(F)(F)F)CC1 [Compound 4] | 98
O=C1c2ccccc2C(=O)c2c(Nc3ccc(S(=O)(=O)N(CCO)CCO)cc3)ccc(O)c21 [Compound 2] | 74.2
Cc1ccc(/C(=N/NS(=O)(=O)c2ccc([N+](=O)[O-])cc2)Sc2cc(Cl)c(C)cc2S(N)(=O)=O)cc1 [Compound 3] | 33

Next item in the queue.
Per the record, CC(C)c1nc(CN(C)C(=O)N[C@@H](CCN2CCOCC2)C(=O)N[C@H](CC[C@H](Cc2ccccc2)NC(=O)OCc2cncs2)Cc2ccccc2)cs1 [Compound 5, cobicistat, reference compound] has inhibition at 100 µM of 66.9

* * *

# Tested Target: isolated human 20S proteasome, C-L activity (Homo sapiens, UniProt P28072+Q99436)
# Construct: human purified erythrocyte-derived 20S proteasome; purchased Enzo Life Sciences, Inc; host or cells: human erythrocytes (natural source)
# Test Method Notes: Proteasome inhibition assay in isolated human 20S proteasomes (Proteasome-Glo), C-L activity
# Format: biochemical
# Test Context: at 10 µM; read-out: percentage of proteasome inhibition, C-L, isolated 20S proteasome
Classify by measured inhibition at 10 µM: Condition met if it is equal to or exceeds 10%, Condition not met if it is smaller.

Use the examples below as a reference point.
O=C1c2ccccc2C(=O)c2c(Nc3ccc(S(=O)(=O)N(CCO)CCO)cc3)ccc(O)c21 | Condition met
C#CCCN1CCN(c2ccc(-n3c(=O)ccc4cnc5ccc(-c6ccc(N)nc6)cc5c43)cc2C(F)(F)F)CC1 | Condition not met
Cc1ccc2ccccc2c1CSc1ncnc2c1ncn2C1OC(CO)C(O)C1O (stereo not drawn) | Condition not met

Q) Decide: inhibition at 10 µM of CC(C)c1nc(CN(C)C(=O)N[C@@H](CCN2CCOCC2)C(=O)N[C@H](CC[C@H](Cc2ccccc2)NC(=O)OCc2cncs2)Cc2ccccc2)cs1 [Compound 5, cobicistat, reference compound] >= 10%?
A) Condition not met

Q) Decide: inhibition at 10 µM of CC(C)C[C@H](NC(=O)[C@H](Cc1ccccc1)NC(=O)c1cnccn1)B(O)O [Bortezomib, bortezomib, reference compound] >= 10%?
A) Condition met

* * *

# Test Method Notes: Cell viability, MTT assay, Jurkat
# Type: cell-based, human
# Test Context: human, Jurkat E6.1 T-cell leukemia cells, at 10 µM, read-out: percentage of cell viability, MTT, Jurkat
Measured Endpoint: viability at 72 h, 10 µM
Entry format: amount then unit.

Cc1ccc2ccccc2c1CSc1ncnc2c1ncn2C1OC(CO)C(O)C1O (stereo not drawn) [Compound 1] | 98.7%
CC(C)C[C@H](NC(=O)[C@H](Cc1ccccc1)NC(=O)c1cnccn1)B(O)O [Bortezomib, bortezomib, reference compound] | 0%

Next item in the queue.
Per the record, CC(C)c1nc(CN(C)C(=O)N[C@@H](CCN2CCOCC2)C(=O)N[C@H](CC[C@H](Cc2ccccc2)NC(=O)OCc2cncs2)Cc2ccccc2)cs1 [Compound 5, cobicistat, reference compound] has viability at 72 h, 10 µM of 93.3%

* * *

# Test Method Notes: Cell viability, MTT assay, K562
# Type: cell-based, human
# Test Context: human, K562 leukemia cells, at 100 µM, read-out: percentage of cell viability, MTT, K562
Measured Endpoint: viability at 72 h, 100 µM (%)
Could you give me the number in %? Just the number is fine.

Cc1ccc2ccccc2c1CSc1ncnc2c1ncn2C1OC(CO)C(O)C1O (stereo not drawn) [Compound 1] | 18.2
CC(C)C[C@H](NC(=O)[C@H](Cc1ccccc1)NC(=O)c1cnccn1)B(O)O [Bortezomib, bortezomib, reference compound] | 0

Next item in the queue.
Per the record, Cc1ccc(/C(=N/NS(=O)(=O)c2ccc([N+](=O)[O-])cc2)Sc2cc(Cl)c(C)cc2S(N)(=O)=O)cc1 [Compound 3] has viability at 72 h, 100 µM of 100

* * *

# Tested Target: 20S proteasome in HCT116 cell lysates, C-L activity (Homo sapiens)
# Test Method Notes: Proteasome inhibition assay in cell lysates, HCT116, C-L
# Test Context: at 100 µM; Table 2 legend: bortezomib 10 µM; NI = No inhibition
Recorded percentage of proteasome inhibition, C-L, cell lysates HCT116, one value per entry.
Could you give me the number in %? Just the number is fine.

Examples with answers:
C#CCCN1CCN(c2ccc(-n3c(=O)ccc4cnc5ccc(-c6ccc(N)nc6)cc5c43)cc2C(F)(F)F)CC1 [Compound 4] | 90
CC(C)C[C@H](NC(=O)[C@H](Cc1ccccc1)NC(=O)c1cnccn1)B(O)O [Bortezomib, bortezomib, reference compound] | 99
CC(C)c1nc(CN(C)C(=O)N[C@@H](CCN2CCOCC2)C(=O)N[C@H](CC[C@H](Cc2ccccc2)NC(=O)OCc2cncs2)Cc2ccccc2)cs1 [Compound 5, cobicistat, reference compound] | 28
Cc1ccc2ccccc2c1CSc1ncnc2c1ncn2C1OC(CO)C(O)C1O (centres unmarked) [Compound 1] | 71

Next item in the queue.
Per the record, O=C1c2ccccc2C(=O)c2c(Nc3ccc(S(=O)(=O)N(CCO)CCO)cc3)ccc(O)c21 [Compound 2] has percentage of proteasome inhibition, C-L, cell lysates HCT116 of 74

Numbers sourced from paper PMC10458307.
